Reference for the values: the Human Domainome abundance scans (Beltran et al. 2025)

B1: Androgen receptor, residues 557 to 632; numbered along this chain, P10275 (parent)
chain: QKTCLICGDEASGCHYGALTCGSCKVFFKRAAEGKQKYLCASRNDCTIDKFRRKNCPSCRLRKCYEAGMTLGARKL

Variants of: B1
procedure details: abundance fitness (aPCA) (normalised: wild type 0, dead -1); higher = more abundant; growth selection in yeast, the domain comes from the species named
condition label: Homo sapiens
Give measured abundance fitness for each item. Keep answers brief.
Give bare numbers.

Sample records with abundance fitness:
> print(dat)
                              sequence.code  result.value
1  QKTCLICGDEASGCHYQALTCGSCKVFFKRAAEGKQKYLCASRNDCTIDKFRRKNCPSCRLRKCYEAGMTLGARKL [G17Q]        -0.357
2  QKTCLICGDEASGCHYGALTCGSCKVFFKRAAEGKQKYLCASRVDCTIDKFRRKNCPSCRLRKCYEAGMTLGARKL [N44V]        -0.343

For the 8 variants below, give their abundance fitness values.
1. QKTCLICGDEASGCHYGALTCGSCKVFFKRAAEGKQKYLCASRNDCTIDKFRRKNCPSCRLRQCYEAGMTLGARKL [K63Q]
2. QKTCLICGDEASGNHYGALTCGSCKVFFKRAAEGKQKYLCASRNDCTIDKFRRKNCPSCRLRKCYEAGMTLGARKL [C14N]
3. QKTCLICGDEASGCHYGALTCGSCKVFFKRAAEGKQKYLCASRNDCTIFKFRRKNCPSCRLRKCYEAGMTLGARKL [D49F]
4. QKTCLICGDEASGCHSGALTCGSCKVFFKRAAEGKQKYLCASRNDCTIDKFRRKNCPSCRLRKCYEAGMTLGARKL [Y16S]
5. QKTCLICGDEASGCHYGALTCGSCKVFFKRAAEGKQKYLCASRNDCTITKFRRKNCPSCRLRKCYEAGMTLGARKL [D49T]
6. QKTCLICGDEASGCHYGALTCGSCKDFFKRAAEGKQKYLCASRNDCTIDKFRRKNCPSCRLRKCYEAGMTLGARKL [V26D]
7. QKTCLICGDEASGCHYGALTCGSCKVFFKRAAEGKQKYLCASRCDCTIDKFRRKNCPSCRLRKCYEAGMTLGARKL [N44C]
8. QKTCLICGDEASGCHYGALTCGSCKVFFKRAAQGKQKYLCASRNDCTIDKFRRKNCPSCRLRKCYEAGMTLGARKL [E33Q]

## Output
1. -0.084
2. -0.351
3. -0.613
4. -0.408
5. -0.165
6. 0.043
7. -0.419
8. 0.023

For the 6 variants below, give their abundance fitness values.
1. QKTCLICGDEASGCHYGALTCGSCKVFFKRAARGKQKYLCASRNDCTIDKFRRKNCPSCRLRKCYEAGMTLGARKL [E33R]
2. QKTCLICGDEASGCHYGAITCGSCKVFFKRAAEGKQKYLCASRNDCTIDKFRRKNCPSCRLRKCYEAGMTLGARKL [L19I]
3. QKTCLICGDEASGCHYGALNCGSCKVFFKRAAEGKQKYLCASRNDCTIDKFRRKNCPSCRLRKCYEAGMTLGARKL [T20N]
4. QKTCLICGDEASGCHYGALTCGSCKVFFKRAAEGKQKYLCASRNDCCIDKFRRKNCPSCRLRKCYEAGMTLGARKL [T47C]
5. QKTCLICGDEASGCHYGALTCGSCKVFFKRAAEGKQKYLCASRNDCTIDKFRRKNRPSCRLRKCYEAGMTLGARKL [C56R]
6. QKTCLICGDEASGCHYGALTCGSCKVFFKRAAEGKQKYLCASRNDCTIDKFRRKNCPSCRLRKCYEAGMTLDARKL [G72D]

## Output
1. -0.042
2. -0.034
3. -0.441
4. -0.077
5. -1.02
6. 0.098

For the 8 variants below, give their abundance fitness values.
1. QKTCLICGDEASGCHYGGLTCGSCKVFFKRAAEGKQKYLCASRNDCTIDKFRRKNCPSCRLRKCYEAGMTLGARKL [A18G]
2. QKTCLDCGDEASGCHYGALTCGSCKVFFKRAAEGKQKYLCASRNDCTIDKFRRKNCPSCRLRKCYEAGMTLGARKL [I6D]
3. QKTCLICGDEASGCHYGALTCGSCKVFFKREAEGKQKYLCASRNDCTIDKFRRKNCPSCRLRKCYEAGMTLGARKL [A31E]
4. QKECLICGDEASGCHYGALTCGSCKVFFKRAAEGKQKYLCASRNDCTIDKFRRKNCPSCRLRKCYEAGMTLGARKL [T3E]
5. QKTCLICGDEASGCHYGALTCGSCKVFFKRAAEGKQKYLCASRNQCTIDKFRRKNCPSCRLRKCYEAGMTLGARKL [D45Q]
6. QKTCLICGDEASGCHYGALTCGSCKVFFKRAAEGKQKYLCASRNDATIDKFRRKNCPSCRLRKCYEAGMTLGARKL [C46A]
7. QKTCTICGDEASGCHYGALTCGSCKVFFKRAAEGKQKYLCASRNDCTIDKFRRKNCPSCRLRKCYEAGMTLGARKL [L5T]
8. QKTCLICGDEASGCHYGALTCGSCKVFFKRAAEGKQKYLCASRNDCTIDKFRRKPCPSCRLRKCYEAGMTLGARKL [N55P]

## Output
[-0.335, -0.646, -0.093, -0.148, 0.176, -0.904, -0.01, -0.099]

For the 4 variants below, give their abundance fitness values.
1. QKTCLICGDEASGCHYGALTCGSCKVFFKRAAEGKQKYLCASRNDCTIDKFRRKCCPSCRLRKCYEAGMTLGARKL [N55C]
2. QKTCLICGDEASGCHYGALTCGSWKVFFKRAAEGKQKYLCASRNDCTIDKFRRKNCPSCRLRKCYEAGMTLGARKL [C24W]
3. QKTCLICGDEASGCHYGALTCGSCKVFFKRAAEGKQKYLCPSRNDCTIDKFRRKNCPSCRLRKCYEAGMTLGARKL [A41P]
4. QKTCLICGDEASGCHYGALTCGSCKVFFKRAAEGKQKYLCASRNDCTIDKFRRKNCPSCRLRFCYEAGMTLGARKL [K63F]

## Output
1. -0.075
2. -0.903
3. -0.12
4. -0.347
